# target_or_system: T1, cynomolgus EREG (Biacore analyte) (cynomolgus monkey, UniProt O14944 63-108 (human entry), limits assumed)
# T1 construct: also called cynomolgus monkey EREG; cEREG
# T1 sequence (O14944 other isoform, or with tags, fused parts or gaps limits assumed): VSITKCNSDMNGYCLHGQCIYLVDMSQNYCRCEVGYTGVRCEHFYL
# assay: SPR (Biacore T100), antibody captured on Protein A, EREG as analyte, single-cycle kinetics
recorded_metric: kon (M⁻¹ s⁻¹)
Note: unit M⁻¹ s⁻¹ is implicit; provide only the numeric part.

According to the records, this binder H87-G1d/LB-k (antibody, human IgG1, kappa, V domains shown) VH: QDQLVQSGAEVKKPGASVKVSCKASGFNIKDTYIQWVRQAPGQGLEWMGRIDPLTGQTKYQEKFEGRVTITADTSTNTAYMELSSLRSEDTAVYYCVRSGTSFDFWGQGTLVTVSS VL: DIQMTQSPSSLSASVGDRVTITCKASQDIHKYIAWYQQKPGQAPRLLIQYTSTLQPGVPSRFSGSGSGTDYTFTISSLQPEDIATYYCLQYDNLRTFGGGTKVEIKR displays kon of 860000

The binder identified as H206-G1d/L73-k (antibody, human IgG1, kappa, V domains shown) VH: QDQLVQSGAEVKNPGASVKVSCKASGFNIKDTYIQWVRQAPGQGLEWMGRIDPLRRQTKYREKFEGRVTITADTSTNTAYMELSSLRSEDTAVYYCVRSGREFDFWGQGTLVTVSS VL: DIQMTQSPSSLSASVGDRVTITCRASQDIHKYIAWYQQKPGQAPRLLIQYTSTLQPGVPSRFSGSGSGTDYTFTISSLQPEDIATYYCLQYEQLRTFGGGTKVEIKR registered its kon at 500000

The binder listed as H240-G1d/L53-k (antibody, human IgG1, kappa, V domains shown) VH: QDQLVQSGAEVKKPGASVKVSCKASGFNIKDTYIQWVRQAPGQGLEWMGRIDPLRKQTKYREKFEGRVTITADTSTNTAYMELSSLRSEDTAVYYCVRSGREFDYWGQGTLVTVSS VL: DIQMTQSPSSLSASVGDRVTITCRASQDIHKYIAWYQQKPGQAPRLLIQYTSTLQPGVPSRFSGSGSGTDYTFTISSLQPEDIATYYCLQYDNLRTFGGGTKVEIKR shows kon equal to 610000

Record summary for H206-G1d/L53-k (antibody, human IgG1, kappa, V domains shown) VH: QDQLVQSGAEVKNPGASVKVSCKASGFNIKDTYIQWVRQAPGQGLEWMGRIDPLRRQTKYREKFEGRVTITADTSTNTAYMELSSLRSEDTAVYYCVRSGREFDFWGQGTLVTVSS VL: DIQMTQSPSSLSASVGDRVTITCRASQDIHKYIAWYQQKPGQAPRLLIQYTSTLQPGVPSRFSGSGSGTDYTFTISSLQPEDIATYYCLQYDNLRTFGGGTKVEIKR : reported kon = 640000

Value of measured kon for the entry chimeric antibody EP27 (cH-G1/cL-k) (antibody, human IgG1, kappa, V domains shown, mouse EP27 variable regions with human IgG1 (G1) and kappa constant regions; also called chimeric EP27) VH: EDQLQQSGAELVKPGASVKLSCTASGFNIKDTYIQWVKLRPEQGLEWIGRIDPLNGNTKYVPKFQGKATITADTSSNTAYLQLSSLTSEDTAVYYCVRSGTLFDFWGQGTTLTVSS VL: DIQMTQSPSSLSASLGGKVTITCKASQDIHKYIAWYQHKPGKGPRLLIQYTSTLQPGIPSRFSGSGSGRDYSFSISNLEPEDIATYYCLQYDNLRTFGGGTKLEIKR : 990000

The recorded kon for H240-G1d/L73-k (antibody, human IgG1, kappa, V domains shown) VH: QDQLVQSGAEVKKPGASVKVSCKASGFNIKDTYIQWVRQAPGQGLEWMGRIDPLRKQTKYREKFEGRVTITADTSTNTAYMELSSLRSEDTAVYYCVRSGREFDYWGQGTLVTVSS VL: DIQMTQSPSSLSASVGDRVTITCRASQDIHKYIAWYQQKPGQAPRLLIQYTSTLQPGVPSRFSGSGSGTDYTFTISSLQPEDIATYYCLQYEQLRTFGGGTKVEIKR is 340000

This collection of values is drawn from patent US20160159919A1.
